Test system: cyno B7-H3
Sequence (as listed by the source): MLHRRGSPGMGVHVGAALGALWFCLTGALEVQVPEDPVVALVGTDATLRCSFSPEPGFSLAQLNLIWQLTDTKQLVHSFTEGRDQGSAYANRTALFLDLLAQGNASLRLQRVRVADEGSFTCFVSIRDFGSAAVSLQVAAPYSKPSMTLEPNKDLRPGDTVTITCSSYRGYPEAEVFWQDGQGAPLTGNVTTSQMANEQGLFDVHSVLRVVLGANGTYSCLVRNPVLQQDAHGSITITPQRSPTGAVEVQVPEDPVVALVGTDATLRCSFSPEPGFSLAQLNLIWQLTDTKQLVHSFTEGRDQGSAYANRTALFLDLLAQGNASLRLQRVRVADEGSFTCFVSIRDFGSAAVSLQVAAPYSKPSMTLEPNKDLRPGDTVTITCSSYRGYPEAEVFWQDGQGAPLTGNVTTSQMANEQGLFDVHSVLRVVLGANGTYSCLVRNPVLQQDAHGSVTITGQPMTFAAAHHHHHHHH
Experiment: Biacore T200 SPR binding kinetics, mAb capture, soluble ECD of cyno B7-H3
Parameters: species or system cynomolgus monkey
Conditions: 1:1 binding model
ka (1/Ms) cynoB7-H3 reference
Respond with a number, then the unit of measure.

Ab11: murine anti-B7-H3 mAbs; mouse hybridoma derived (antibody, V domains shown) VH: EVKLVESGGGLVQPGGSLRLSCATSGFTFTNYYMSWVRQPPGKALEWLGFIRNKANDYTTEYSASVKGRFTISRDNSQSILYLQMNTLRAEDSATYYCARESPGNPFAYWGQGTLVTVSA VL: DIVMTQSPSSLTVTAGEKVTMTCKSSQSLLNSGTQKNFLTWYQQKPGQPPKLLIYWASTRESGVPDRFTGSGSGTDFTLTISSVQAEDLAVYFCQNDYIYPLTFGAGTKLELK ... 27000 M⁻¹ s⁻¹

Prompt line: What ka (1/Ms) cynoB7-H3 value was documented for this molecule, Ab16: mouse hybridoma derived anti-B7-H3 monoclonal antibodies (mAbs) (antibody, V domains shown) VH: EVKLLESGGGLVQPGGSLKLSCAASGFDFSRYWMSWVRQAPGKGLEWIGEINPDSSTINYTPSLKDKFIISRDNAKNTLYLQMSKVRSEDTALYYCARPGFGNYIYAMDYWGQGTSVTVSS VL: DIQMTQTTSSLSASLGDRVTINCRASQDISNFLNWYQQKPDGTVKLLIYYTSRLYLGVPSRFSGSGSGTDYSLTISNLEQEDIATYFCQQGNTLPPTFGGGTKLEIK ?
Response line: 750000 M⁻¹ s⁻¹

Reference source: patent US20200338209A1
